target_of_assay: human 5-HT1A receptor (Homo sapiens)
Construct: purchased Packard Bioscience; host or cells: CHO cells (membrane preparation)
Sequence (P08908 1-422): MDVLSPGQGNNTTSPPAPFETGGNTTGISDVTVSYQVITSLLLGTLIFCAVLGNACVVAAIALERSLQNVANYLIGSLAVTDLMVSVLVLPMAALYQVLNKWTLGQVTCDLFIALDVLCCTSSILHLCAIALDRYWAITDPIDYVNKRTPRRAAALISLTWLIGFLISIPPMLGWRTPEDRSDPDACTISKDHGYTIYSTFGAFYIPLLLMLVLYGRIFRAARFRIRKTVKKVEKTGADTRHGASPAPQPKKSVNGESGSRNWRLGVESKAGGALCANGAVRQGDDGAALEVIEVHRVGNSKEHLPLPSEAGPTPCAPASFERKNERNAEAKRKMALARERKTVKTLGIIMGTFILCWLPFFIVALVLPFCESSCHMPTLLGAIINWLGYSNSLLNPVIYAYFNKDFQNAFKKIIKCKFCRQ
measurement_description: Affinity measurement of the compounds to human 5-HT1A receptor (in vitro), [3H]8-OH-DPAT binding
experimental_setup: test compound 100 nmols/L; [3H]8-OH-DPAT 0.25 nmols/L; CHO cell membrane expressing human 5-HT1A receptor; read-out: Percent Inhibition (%) on Each Receptor's Binding at 10^−7M, 5-HT1A
attribute_measured: inhibition at 0.1 µM (%)
Express it in %; write the number only.

Query: Quickly give me recorded inhibition at 0.1 µM for Cc1cc(N2CCN(CCCCc3nc4c(c(=O)n3Cc3ccccc3)CCCC4)CC2)nc2ccccc12
Result: 93.4

Query: Quickly give me recorded inhibition at 0.1 µM for Clc1ccc2c(N3CCNCC3)nccc2c1
Result: 88.9

Query: Quickly give me recorded inhibition at 0.1 µM for CCn1c(CCCCN2CCN(c3ccc4ccccc4n3)CC2)nc2ccccc2c1=O
Result: 97.4

Query: Quickly give me recorded inhibition at 0.1 µM for c1cc2ccoc2c(N2CCNCC2)n1 [Production Example 1, 7-piperazin-1-ylfuro[2,3-c]pyridine]
Result: 86.7

Query: Quickly give me recorded inhibition at 0.1 µM for Clc1ccc2ccnc(N3CCN4CCC[C@@H]4C3)c2c1
Result: 96.6

Query: Quickly give me recorded inhibition at 0.1 µM for Cc1ccc2nc(CCCCN3CCN(c4ccc5ccccc5n4)CC3)n(N)c(=O)c2c1
Result: 94.3

Query: Quickly give me recorded inhibition at 0.1 µM for CN1CCN(c2nccc3ccsc23)CC1
Result: 90.1

Query: Quickly give me recorded inhibition at 0.1 µM for Cc1sc2nc(SCCCN3CCN(c4nc5ccccc5n5cccc45)CC3)n(N)c(=O)c2c1C
Result: 85

Query: Quickly give me recorded inhibition at 0.1 µM for CCn1c(CCCCN2CCN(c3ccc4ccccc4n3)CC2)nc2c(c1=O)CC(C)CC2 (centres unmarked)
Result: 90.2

Query: Quickly give me recorded inhibition at 0.1 µM for NS(=O)(=O)Oc1ccc2ccnc(N3CCN4CCC[C@H]4C3)c2c1
Result: 96.4

Query: Quickly give me recorded inhibition at 0.1 µM for c1cc2ccsc2c(N2CCN3CCC[C@H]3C2)n1
Result: 91.4

Query: Quickly give me recorded inhibition at 0.1 µM for COc1ccc(-n2c(CCCCN3CCN(c4ccc5ccccc5n4)CC3)nc3ccccc3c2=O)cc1
Result: 50.6

Query: Quickly give me recorded inhibition at 0.1 µM for O=c1[nH]c(SCCCN2CCN(c3ccc4ccccc4n3)CC2)nc2ccsc12
Result: 41.9

Query: Quickly give me recorded inhibition at 0.1 µM for CC1CCc2nc(CCCCN3CCN(c4ccc5ccccc5n4)CC3)n(N)c(=O)c2C1 (centres unmarked)
Result: 96.9

Query: Quickly give me recorded inhibition at 0.1 µM for O=c1[nH]c(NCCCN2CCN(c3nc4ccccc4n4cccc34)CC2)nc2ccccc12
Result: 54.5

Query: Quickly give me recorded inhibition at 0.1 µM for Nn1c(CCCCN2CCN(c3ccc4ccccc4n3)CC2)nc2ccc(F)cc2c1=O
Result: 96.9

Query: Quickly give me recorded inhibition at 0.1 µM for Clc1ccc2ccnc(N3CCN4CCC[C@H]4C3)c2c1
Result: 98.3
